Where do the numbers come from? From patent US20140056903A1.

- assay target: T1, human GFRα3 expressed with a C-terminal mFc tag (human)
- T1 construct: also called hGFRα3-mFc
- T1 chain: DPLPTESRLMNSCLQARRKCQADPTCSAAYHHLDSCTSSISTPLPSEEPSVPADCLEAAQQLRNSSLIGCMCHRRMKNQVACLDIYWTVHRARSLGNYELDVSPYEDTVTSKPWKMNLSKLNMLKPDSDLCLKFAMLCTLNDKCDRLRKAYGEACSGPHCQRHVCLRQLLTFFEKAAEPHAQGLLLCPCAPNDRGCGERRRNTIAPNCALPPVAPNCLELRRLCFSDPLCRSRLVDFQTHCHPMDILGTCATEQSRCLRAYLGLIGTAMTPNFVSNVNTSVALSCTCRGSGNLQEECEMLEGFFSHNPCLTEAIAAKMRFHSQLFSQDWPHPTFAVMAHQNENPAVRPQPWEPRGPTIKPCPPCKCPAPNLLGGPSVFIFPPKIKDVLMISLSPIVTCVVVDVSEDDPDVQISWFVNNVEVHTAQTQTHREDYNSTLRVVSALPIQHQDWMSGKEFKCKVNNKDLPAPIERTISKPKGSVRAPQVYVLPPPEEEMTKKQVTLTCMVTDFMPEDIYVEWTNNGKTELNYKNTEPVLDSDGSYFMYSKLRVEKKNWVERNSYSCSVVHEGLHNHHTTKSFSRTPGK
- protocol text: SPR, Ab captured, 37C
readout kind: kon

[[record]]
binder = "H4H2345S (antibody, human IgG4, V domains shown, human IgG4 Fc (H4H)) VH: EVQLVESGGGLVRPGRSLRLSCAASGFTFDNYAMHWVRQVPGKGLEWVSGITWNSVSLGYADSVKGRFTISRDNAQNSLYLQMNSLRTVDTALYYCAKDRWGGSYYFDFWGQGTLVTVSS VL: DIVMTQSPSSLSASVGDRVTITCRASQGISNYLAWYQQKPGKVPKLLIYSASTLQSGVPSRFSGSGSGTDFTLTISNLQPEDFATFFCQKYNSAPTFGGGTKVEIK"
measurement = "700000 M⁻¹ s⁻¹"

[[record]]
binder = "H4H2346S (antibody, human IgG4, V domains shown, human IgG4 Fc (H4H)) VH: QVQLVESGGGVVQPGRSLRLSCAASGFSFSDYVMHWVRQAPGKGLEWVASIWFDGSNEFYADSVKGRFTISRDNSKNTLFLQMNSLRAEDTAVYYCAKKGVLVATSAFDIWGQGTMVTVSS VL: EIVMTQSPSSLSASVGDRVTITCRASQSINNYLNWYHQKPGKAPKLLIYAASSLQSGVPSRFSGSGSGTDYTLTISSLQPEDFGNYYCQQSYRTSMYTFGQGTKVEIK"
measurement = "1.75e+06 M⁻¹ s⁻¹"

